- Experiment summary: Phase I trial of oral PCLX-001: plasma pharmacokinetics, noncompartmental analysis (Phoenix WinNonlin 8.3)
- Assay type: in vivo, human
- Condition label: human, plasma, po, 40 mg, Table 7; Patient 115-002-005; Day 1; 40 mg QD oral; Pantoprazole Yes; read-out: Tmax
Readout: Tmax (min)
# output: bare number, implied unit min

Need Tmax of Cc1c(NS(=O)(=O)c2c(Cl)cc(-c3ccnc(N4CCNCC4)c3)cc2Cl)c(CC(C)C)nn1C [PCLX-001] , thanks.
30

* * *

- Experiment summary: Phase I trial of oral PCLX-001: plasma pharmacokinetics, noncompartmental analysis (Phoenix WinNonlin 8.3)
- Type: in vivo, human
- Condition label: human, plasma, po, 20 mg, Table 6; Patient 115-002-001; Day 15; 20 mg QD oral; Pantoprazole No; read-out: AUClast or AUCtau
Readout: AUC(0-t)

Need AUC(0-t) of Cc1c(NS(=O)(=O)c2c(Cl)cc(-c3ccnc(N4CCNCC4)c3)cc2Cl)c(CC(C)C)nn1C [PCLX-001] , thanks.
2.75 µg·h/mL
